tested on: HS 578T breast; test: NCI-60 one-dose screen, 48 h (100 = growth as untreated, 0 = no growth, -100 = all killed); conditions: 10 µM unless noted
About 83,000 compounds went through this panel and 20% of them were active in at least one assay; those are over-represented in the sample as a whole.
growth below 30% gives not fulfilled; growth at or above it gives fulfilled.

| compound | group |
| --- | --- |
| Oc1ccccc1/C=N/Nc1nc2ccccc2s1 | fulfilled |
| COC(=O)[C@@H]1CCCN1C(=O)[C@@H]1CCCN1C(=O)[C@@H](Cc1c[nH]c2ccccc12)NC(=S)Nc1cc(C(F)(F)F)cc(C(F)(F)F)c1 | fulfilled |
| COc1cccc(C2C3=C(COC3=O)N(CCO)c3cc4c(cc32)CCC4)c1 (stereo not drawn) | not fulfilled |
| O=C(O)CCN1CCN(c2cccc(Cl)c2)CC1 | fulfilled |
| COc1cc(/C=N/NC(=O)c2cnn3c2NC(c2ccccc2)C3)ccc1OC1CCCC1 (stereo not drawn) | not fulfilled |
| Cc1nc2ccc(Cl)cc2n1C | fulfilled |
| Cc1ccc2nc(NC(=O)CSC(=S)N3CCN(Cc4ccccc4)CC3)sc2c1 | not fulfilled |
| Cc1cc(=O)c2c(C)ccc(C)c2[nH]1 | fulfilled |
| COc1ccc(CSc2nc3cc(OC)c(OC)cc3c(=O)n2-c2ccc(Cl)cc2)cc1 | fulfilled |
| Nc1ccccc1-c1n[nH]c(=O)[nH]c1=O | fulfilled |
| O=C1/C(=C/c2ccccc2F)CNC/C1=C\c1ccccc1F | not fulfilled |
| Cc1ccc2c(c1)c(Sc1ccc(C(=O)NO)cc1)c1n2CN(C)CC1 | fulfilled |
| COc1cccc(C2CC(=O)Nc3cc4c(cc32)CCC4)c1OC (stereo not drawn) | fulfilled |
| COc1cc(/C=N/NC(=O)c2cnn3c2NC(c2ccccc2)C3)cc(OC)c1OC (stereo not drawn) | fulfilled |
| O=C1NC(=S)S/C1=C\c1cccc([N+](=O)[O-])c1 | fulfilled |
| O=C1NC(=O)C(CSc2ccccc2)(c2ccccc2)N1 (stereo not drawn) | fulfilled |
| Cc1cccc2c(=O)c3c(sc12)c(NCCCN)nc1ccccc13 | not fulfilled |
| COc1cc(C(=O)/C=C/c2c(-c3cccs3)nc3sccn23)cc(OC)c1OC | not fulfilled |
| COC(=O)c1ccc(C(=O)Nc2ccccc2N)cc1 | fulfilled |
| CC1(C)N=C(N)N=C(N)N1c1cccc(OCCOc2cccc([N+](=O)[O-])c2)c1 | fulfilled |
| Oc1ccc2ccccc2c1C1NN=C(c2ccccc2)S1 (stereo not drawn) | fulfilled |
| NC(=O)c1cc(I)ccc1NC(=O)COc1ccc(Cl)cc1Cl | fulfilled |
| NS(=O)(=O)c1cc(Br)c2c(c1)S(=O)(=O)NCN2 | fulfilled |
| C=CC(=O)N1CC2(CC(n3nc(-c4ccc(Oc5ccccc5)cc4)c4c(N)ncnc43)C2)C1 | not fulfilled |
| c1ccc2cc(Cn3c(-c4ccc5ccccc5c4)[n+](Cc4ccc5ccccc5c4)c4ccccc43)ccc2c1 | not fulfilled |
| COc1ccc(OC)c(C2C(C#N)=C(N)Oc3cc(O)ccc32)c1 (stereo not drawn) | fulfilled |
| CON=C1C[C@]2(C[C@@H]3C[C@@H](C/C=C(\C)C[C@@H](C)/C=C/C=C4\CO[C@@H]5[C@H](O)C(C)=C[C@@H](C(=O)O3)[C@]45O)O2)O[C@H](/C(C)=C/C(C)C)[C@H]1C | fulfilled |
| COc1ccc(-n2c(SCc3cc(OC)c(OC)c(OC)c3)nc3ccc(C)cc3c2=O)c(OC)c1 | not fulfilled |
| NC(=O)c1cc(I)ccc1NC(=O)COc1ccccc1 | fulfilled |
| CSC1=CC(=O)c2ccccc2C1=O | fulfilled |
| c1ccc2cc(-c3n(Cc4ccc5ccccc5n4)c4ccccc4[n+]3Cc3ccc4ccccc4n3)ccc2c1 | not fulfilled |
| CCN(CC)c1ccc(/C=C(\C#N)c2cc3ccccc3[nH]2)cc1 | fulfilled |
| CN1CCc2cccc3c2C1Cc1ccc(O)c(O)c1-3 (stereo not drawn) | fulfilled |

---

test system: NCI-H522 lung; assay: NCI-60 one-dose screen, 48 h (100 = growth as untreated, 0 = no growth, -100 = all killed); conditions: 10 µM
The panel holds about 83,000 compounds, 20% with a hit somewhere; the sample as a whole holds those more often. Active and inactive are the calls of the source. The calls were made as follows: active = growth percent below 10; inactive = the rest.
Here the recorded growth is given for each entry.
result.type: growth

| molecule | result |
| --- | --- |
| Cc1nc2cc(Nc3nc(Nc4ccc(F)cc4)nc(N4CCCC4)n3)ccc2n1Cc1ccccc1 | -4.13% (active) |
| COc1cccc(-c2ccc3c(c2)C2CCN(Cc4ccccc4)C3C2)c1 (centres undefined) | 55.1% (inactive) |
| COc1ccccc1CNCCCCCCCCCCCCN1C(=O)c2ccc3c4c(ccc(c24)C1=O)C(=O)N(CCCCCCCCCCCCNCc1ccccc1OC)C3=O | 87% (inactive) |
| Clc1ccc(Nc2nc(Nc3ccccc3)nc(Nc3ccc(-c4cc(-c5ccc(Cl)cc5)on4)cc3)n2)cc1 | 26.2% (inactive) |
| O=[N+]([O-])c1ccc(O)c2ncccc12 | 51.6% (inactive) |
| COc1ccc(-c2c3c(N)c4c(nc3nc3c2c(C)nn3-c2ccccc2)CCCCC4)cc1 | 50.2% (inactive) |
| Cc1nc2cc(Nc3nc(Nc4ccc(F)cc4)nc(N4CCN(C)CC4)n3)ccc2n1Cc1ccccc1 | -55.1% (active) |
| Clc1ccccc1Nc1ccc2nnc(-c3ccncc3)n2n1 | -55.8% (active) |
| NC(=O)c1cccc(-n2ccc3cc(NC(=O)Nc4ccc(Cl)c(Cl)c4)ccc32)n1 | 68.2% (inactive) |
| Cc1ccc(-c2nnc(COc3ccc(-c4nnc(N)s4)cc3)o2)cc1 | 73.9% (inactive) |
| O=C(N/N=C/c1ccc(OC(F)F)c(OC2CCCC2)c1)c1cnn2c1NC(c1ccccc1)C2 (centres undefined) | 78.8% (inactive) |
| CN1CCN(C)c2cncc(Br)c2C1=O | 93.5% (inactive) |
| CC1(C)N=C(N)N=C(N)N1c1cccc(/C=C/C=C/c2cccc([N+](=O)[O-])c2)c1 | 27.6% (inactive) |
| C[C@@H](Oc1cc(-c2cnn(C3CC4(CNC4)C3)c2)cnc1N)c1c(Cl)ccc(F)c1Cl | 69.1% (inactive) |
| CCC(C)Oc1cc(/C=N/NC(=O)c2cnn3c2NC(c2ccccc2)C3)ccc1OC (centres undefined) | 10.7% (inactive) |
| COc1cc(/C=C/C(=O)CC(=O)/C=C/c2cc(Br)c(OC)c(OC)c2)cc(Br)c1OC | 92.8% (inactive) |
| Cc1ccc(NS(=O)(=O)c2ccc(-c3cnc(C4CC4)o3)cc2)cc1 | 9.2% (active) |
| O=C(Nc1ccc(Cl)c(Cl)c1)NC(CO)(CO)CO | 88.7% (inactive) |
| COC(=O)c1c2c(c(C)[n+]([O-])c1C)C(=O)C=C(NCc1cccc(OC)c1)C2=O | -54.7% (active) |

---

Recorded growth values for a group of molecules are listed next.
system: MDA-MB-435 melanoma; assay: NCI-60 one-dose screen, 48 h (100 = growth as untreated, 0 = no growth, -100 = all killed); details: 10 µM unless noted
Compounds without any hit were thinned out: in the full panel of roughly 83,000, 20% have a hit.

| molecule | target | growth [%] |
| --- | --- | --- |
| COc1cc(C(=O)/C=C/c2c(-c3cccs3)nc3sccn23)cc(OC)c1OC | MDA-MB-435 melanoma | 2.16 |
| O=C(N/N=C(\CS(=O)(=O)c1ccccc1)c1cc2ccccc2oc1=O)c1ccccc1 | MDA-MB-435 melanoma | 103 |
| Cn1c2ccc(Cl)cc2c2nn(C(=O)c3ccccc3)c(=O)nc21 | MDA-MB-435 melanoma | 111 |
| COC(=O)c1c2c(c(C)[n+]([O-])c1C)C(=O)C=C(NCc1ccc(F)c(Cl)c1)C2=O | MDA-MB-435 melanoma | -96.9 |
| COc1ccc(-c2[nH]ncc2Nc2cc(OC)c(OC)c(OC)c2)cc1 | MDA-MB-435 melanoma | -11.7 |
| CSc1nnc(-c2sc3nnc(-c4ccccc4)c(-c4ccccc4)c3c2O)o1 | MDA-MB-435 melanoma | 88.4 |
| Cc1nc2nc(C(F)(F)F)[nH]c2nc1C | MDA-MB-435 melanoma | 112 |
| COc1nc2c(cc1S(=O)(=O)c1ccccc1)CCc1c-2cnn1-c1cccc(Cl)c1 | MDA-MB-435 melanoma | 63 |
| COc1ccc(OC2=CC(=O)c3ccc(C)nc3C2=O)cc1 | MDA-MB-435 melanoma | 83 |
| O=C1N/C(=C\c2ccccc2)c2ncccc21 | MDA-MB-435 melanoma | 109 |
| COc1ccc2nc(-n3nc(C)cc3C)c(-n3nc(C)cc3C)nc2c1 | MDA-MB-435 melanoma | 102 |
| COc1cc(/C=C/C(=O)CC(=O)/C=C/c2cc(Br)c(OC)c(OC)c2)cc(Br)c1OC | MDA-MB-435 melanoma | 101 |
| COc1cccc(C2CC(=O)Nc3cc4c(cc32)OCO4)c1OC (configuration not stated) | MDA-MB-435 melanoma | 97 |
| C[C@@H](Oc1cc(-c2cnn(C3CC4(CCNCC4)C3)c2)cnc1N)c1c(F)ccc(Cl)c1Cl | MDA-MB-435 melanoma | -70.4 |
| c1ccc(-c2n(Cc3ccc4ccccc4n3)c3ccccc3[n+]2Cc2ccc3ccccc3n2)cc1 | MDA-MB-435 melanoma | -12.7 |
| O=S(=O)(Nc1ccc(Cl)c(Cl)c1)c1ccc(-c2cnc(C3CC3)o2)cc1 | MDA-MB-435 melanoma | -32.8 |
| NC(=S)N/N=C1\c2ccccc2-c2c(F)c(F)c(F)c(F)c21 | MDA-MB-435 melanoma | 99.6 |

src = PubChem BioAssay (NCI)
